# shrunken log2 fold change annotations
Tested on: Escherichia coli TOP10
Assay: shrunken log2 fold change of peptide-encoding DNA abundance (4.5 h post-induction vs induction); higher = less antimicrobial activity (less host growth inhibition)
Conditions: time post-induction: 4.5 h; library: site-saturation at positions 5, 18, 19, 20
readoutLabel: shrunken log2 fold change

                       seq               readoutlabel  measvalue
0  RRIRIRPPRLPRPRPRPSELPRP  shrunken log2 fold change     -0.186
1  RRIRMRPPRLPRPRPRPLGYPRP  shrunken log2 fold change     -0.264
2  RRIRPRPPRLPRPRPRPGSHPRP  shrunken log2 fold change      0.142
3  RRIRARPPRLPRPRPRPQISPRP  shrunken log2 fold change     -0.051
4  RRIRHRPPRLPRPRPRPSQTPRP  shrunken log2 fold change      0.067
5  RRIRHRPPRLPRPRPRPAHIPRP  shrunken log2 fold change    -0.0784
6  RRIRKRPPRLPRPRPRPLYRPRP  shrunken log2 fold change    -0.0664
7  RRIRSRPPRLPRPRPRPRLNPRP  shrunken log2 fold change       0.15

* * *

System: Escherichia coli TOP10
Assay: shrunken log2 fold change of peptide-encoding DNA abundance (4.5 h post-induction vs induction); higher = less antimicrobial activity (less host growth inhibition)
Conditions: time post-induction: 4.5 h; library: site-saturation at positions 5, 18, 19, 20
So basically: shrunken log2 fold change at 0.02 or higher? That is Met. Lower than 0.02? That is Not met.

In [3]: df
Out[3]:
                        seq  classlabel
 0  RRIRARPPRLPRPRPRPPYCPRP         Met
 1  RRIRPRPPRLPRPRPRPSEHPRP     Not met
 2  RRIRSRPPRLPRPRPRPTPEPRP         Met
 3  RRIRYRPPRLPRPRPRPCGLPRP     Not met
 4  RRIRGRPPRLPRPRPRPHWLPRP         Met
 5  RRIRMRPPRLPRPRPRPTKEPRP     Not met
 6  RRIRYRPPRLPRPRPRPDKQPRP         Met
 7  RRIRPRPPRLPRPRPRPRREPRP         Met
 8  RRIRIRPPRLPRPRPRPDIWPRP     Not met
 9  RRIRGRPPRLPRPRPRPLMEPRP         Met
10  RRIRTRPPRLPRPRPRPECIPRP         Met
11  RRIRGRPPRLPRPRPRPNTYPRP         Met

* * *

System: Escherichia coli TOP10;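 note: peptides expressed intracellularly from a pBAD plasmid library in pooled LB shake-flask culture, induced with 0.3% L-arabinose, DNA abundance read by NGS, three biological replicates, DESeq2 with apeglm shrinkage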
Experiment: shrunken log2 fold change of peptide-encoding DNA abundance (4.5 h post-induction vs induction); higher = less antimicrobial activity (less host growth inhibition)
Conditions: time post-induction: 4.5 h; library: site-saturation at positions 5, 18, 19, 20
# shrunken log2 fold change annotations
readoutLabel: shrunken log2 fold change

                       seq               readoutlabel  measvalue
0  RRIRARPPRLPRPRPRPTTGPRP  shrunken log2 fold change      0.331
1  RRIRQRPPRLPRPRPRPVQPPRP  shrunken log2 fold change     0.0898
2  RRIRMRPPRLPRPRPRPYYTPRP  shrunken log2 fold change     0.0968
